As shown below, each of these compounds has a reported IC50 value.
# test-target: PARP-1 (poly[ADP-ribose] polymerase 1) enzyme (Homo sapiens (Human))
# test: PARP-1 (poly[ADP-ribose] polymerase 1) enzyme inhibitory ability, Trevigen assay kit
# Type: biochemical
# protocol-conditions: PARP-1 enzyme activity
Reply numerically in nM, unit not repeated.

Worked set:
| compound | test-target | IC50, nM |
| --- | --- | --- |
| Cc1ccc(F)c2c(=O)[nH]c(CCC(=O)N3CCN(C(=O)C4CC4)CC3)cc12 | PARP-1 (poly[ADP-ribose] polymerase 1) enzyme (Homo sapiens (Human)) | 14.7 |
| Cc1cc(F)cc2c(=O)[nH]c(CCC(=O)N3CCN(c4ccc(C#N)cn4)CC3)cc12 | PARP-1 (poly[ADP-ribose] polymerase 1) enzyme (Homo sapiens (Human)) | 0.85 |
| Cc1ccc(F)c2c(=O)[nH]c(CCCN3CC=C(c4ccc(C#N)c(F)c4)CC3)cc12 | PARP-1 (poly[ADP-ribose] polymerase 1) enzyme (Homo sapiens (Human)) | 1.77 |
| Cc1ccc(F)c2c(=O)[nH]c(CCCN3CCN(c4ccc(C#N)cc4)CC3)cc12 | PARP-1 (poly[ADP-ribose] polymerase 1) enzyme (Homo sapiens (Human)) | 0.76 |
| O=c1[nH]c(CCCN2C3CCC2CC(O)C3)cc2cccc(F)c12 (centres unmarked) | PARP-1 (poly[ADP-ribose] polymerase 1) enzyme (Homo sapiens (Human)) | 3.27 |

IN: Fill blank: measured IC50 of the compound `N#Cc1ccc(C2=CCN(CCCc3cc4cccc(F)c4c(=O)[nH]3)CC2)nc1` is ____.
OUT: 1.66

IN: Then this compound: `Cc1ccc(F)c2c(=O)[nH]c(CCCN3CC=C(c4ccc(C#N)cc4)CC3)cc12`
OUT: 1.42

IN: Then this compound: `Cc1ccc(F)c2c(=O)[nH]c(CCCN3CCN(c4ccc(C#N)nc4)CC3)cc12`
OUT: 1.09

====

# test-target: UniProt P09874
# test: PARP-1 (poly[ADP-ribose] polymerase 1) enzyme inhibitory ability, Trevigen assay kit
# Format: biochemical
# protocol-conditions: 1 nM compound; read-out: PAR P-1 Inhibitory ability at 1 nM
As shown below, each of these compounds has a reported inhibition at 0.001 µM value.

Worked set:
| compound | observable | reported-value |
| --- | --- | --- |
| Cc1ccc(F)c2c(=O)[nH]c(CCCN3CCN(C(=O)c4cccc(F)c4)CC3)cc12 [Example 65] | inhibition at 0.001 µM | < 50% |
| O=C(CCc1cc2ccc(F)cc2c(=O)[nH]1)N1CC=C(c2ccc(F)cc2F)CC1 [Example 113] | inhibition at 0.001 µM | < 50% |
| O=C(CCc1cc2cccc(F)c2c(=O)[nH]1)N1CCN(c2ccc(F)cc2F)CC1 [Example 78] | inhibition at 0.001 µM | < 50% |

IN: Fill blank: measured inhibition at 0.001 µM of the compound Cc1cc(F)cc2c(=O)[nH]c(CCC(=O)N3CCN(C(=O)C4CCC4)CC3)cc12 [Example 181] is ____.
OUT: < 50%

IN: Then this compound: Cc1ccc(F)c2c(=O)[nH]c(CCC(=O)N3CC=C(c4ccc(F)cc4)CC3)cc12 [Example 125]
OUT: < 50%

IN: Then this compound: O=c1[nH]c(CCCN2CCN(c3ccc(C(F)(F)F)cc3)CC2)cc2ccc(F)cc12 [Example 9]
OUT: < 50%

IN: Then this compound: N#Cc1ccc(C2=CCN(CCCc3cc4cccc(F)c4c(=O)[nH]3)CC2)nc1 [Example 46]
OUT: 50 to 80%

IN: Then this compound: N#Cc1ccc(N2CC3CCC(C2)N3CCCc2cc3ncccc3c(=O)[nH]2)cc1 [Example 225]
OUT: > 80%

====

# test-target: PARP-1 (poly[ADP-ribose] polymerase 1) enzyme (Homo sapiens (Human), UniProt P09874)
# Sequence (P09874 whole entry): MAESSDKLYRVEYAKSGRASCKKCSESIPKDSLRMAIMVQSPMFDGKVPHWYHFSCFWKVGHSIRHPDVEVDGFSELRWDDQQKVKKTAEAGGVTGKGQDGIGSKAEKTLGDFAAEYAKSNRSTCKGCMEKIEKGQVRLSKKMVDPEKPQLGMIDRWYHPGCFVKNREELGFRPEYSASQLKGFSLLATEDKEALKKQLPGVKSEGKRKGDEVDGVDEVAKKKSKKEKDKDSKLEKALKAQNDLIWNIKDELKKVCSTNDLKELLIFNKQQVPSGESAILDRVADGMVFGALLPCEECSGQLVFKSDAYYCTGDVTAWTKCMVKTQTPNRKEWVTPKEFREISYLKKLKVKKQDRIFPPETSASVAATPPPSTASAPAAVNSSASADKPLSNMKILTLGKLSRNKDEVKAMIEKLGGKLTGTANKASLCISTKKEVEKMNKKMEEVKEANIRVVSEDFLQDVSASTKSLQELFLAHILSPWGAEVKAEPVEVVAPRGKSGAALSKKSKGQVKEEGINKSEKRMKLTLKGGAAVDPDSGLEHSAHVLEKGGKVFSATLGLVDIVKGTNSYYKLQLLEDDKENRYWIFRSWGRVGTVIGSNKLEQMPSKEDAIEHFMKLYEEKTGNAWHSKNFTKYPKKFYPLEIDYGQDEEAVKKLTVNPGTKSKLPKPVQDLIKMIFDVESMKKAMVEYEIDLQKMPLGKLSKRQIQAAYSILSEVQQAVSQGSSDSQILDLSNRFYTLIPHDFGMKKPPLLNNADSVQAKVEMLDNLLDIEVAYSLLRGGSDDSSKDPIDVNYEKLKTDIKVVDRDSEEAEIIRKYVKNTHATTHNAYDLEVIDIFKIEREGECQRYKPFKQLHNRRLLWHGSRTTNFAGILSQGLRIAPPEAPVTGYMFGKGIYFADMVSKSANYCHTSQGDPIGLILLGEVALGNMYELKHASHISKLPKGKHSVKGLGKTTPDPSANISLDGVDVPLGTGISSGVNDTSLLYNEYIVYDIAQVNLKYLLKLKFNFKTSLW
# test: PARP-1 (poly[ADP-ribose] polymerase 1) enzyme inhibitory ability, Trevigen assay kit
# Type: biochemical
# protocol-conditions: 1 nM compound; read-out: PAR P-1 Inhibitory ability at 1 nM
As shown below, each of these compounds has a reported inhibition at 0.001 µM value.

Worked set:
| compound | reported-value |
| --- | --- |
| O=c1[nH]c(CCCN2CCN(c3cccc([N+](=O)[O-])c3)CC2)cc2ccc(F)cc12 | < 50% |
| Cc1ccc(F)c2c(=O)[nH]c(CCC(=O)N3C4CCC3CN(c3ccc(F)nc3)C4)cc12 | < 50% |

IN: Fill blank: measured inhibition at 0.001 µM of the compound `N#Cc1ccc(N2CCN(C(=O)CCc3cc4ncccc4c(=O)[nH]3)CC2)cc1` is ____.
OUT: 50 to 80%

IN: Then this compound: `N#Cc1cc(N2CCN(C(=O)CCc3cc4cccc(F)c4c(=O)[nH]3)CC2)ccc1F`
OUT: < 50%

====

# test-target: PARP-1 (poly[ADP-ribose] polymerase 1) enzyme (Homo sapiens (Human), UniProt P09874)
# test: PARP-1 (poly[ADP-ribose] polymerase 1) enzyme inhibitory ability, Trevigen assay kit
# Type: biochemical
# protocol-conditions: PARP-1 enzyme activity
As shown below, each of these compounds has a reported IC50 value.

Worked set:
| compound | reported-value |
| --- | --- |
| O=c1[nH]c(CCCN2CC=C(c3ccc(Cl)cc3)CC2)cc2ccc(F)cc12 [Example 49] | 3.58 nM |
| O=C(CCc1cc2ccc(F)cc2c(=O)[nH]1)N1CC=C(c2ccc(F)cn2)CC1 [Example 103] | 0.91 nM |

Please find the next compound below.
IN: Fill blank: measured IC50 of the compound N#Cc1ccc(N2CCN(C(=O)CCc3cc4ncccc4c(=O)[nH]3)CC2)nc1 [Example 242] is ____.
OUT: 3.18 nM

====

As shown below, each of these compounds has a reported inhibition at 0.001 µM value.
# test-target: PARP-1 (poly[ADP-ribose] polymerase 1) enzyme (Homo sapiens (Human))
# test: PARP-1 (poly[ADP-ribose] polymerase 1) enzyme inhibitory ability, Trevigen assay kit
# Assay type: biochemical
# protocol-conditions: 1 nM compound; read-out: PAR P-1 Inhibitory ability at 1 nM

Worked set:
| compound | reported-value |
| --- | --- |
| Cc1ccc(F)c2c(=O)[nH]c(CCC(=O)N3CCN(c4ccc(F)cc4C#N)CC3)cc12 [Example 136] | < 50% |
| N#Cc1ccc(N2CCN(C(=O)CCc3cc4ccc(F)cc4c(=O)[nH]3)CC2)c(F)c1 [Example 100] | < 50% |
| Cc1ccc(F)c2c(=O)[nH]c(CCCN3C4CCC3CN(c3ccc(C#N)nc3)C4)cc12 [Example 200] | 50 to 80% |
| N#Cc1ccc(N2CC3CCC(C2)N3CCCc2cc3cccc(F)c3c(=O)[nH]2)nc1 [Example 203] | < 50% |
| N#Cc1ccc(NC2CCN(C(=O)CCc3cc4cccc(F)c4c(=O)[nH]3)CC2)cn1 [Example 258] | < 50% |
| Cc1ccc(F)c2c(=O)[nH]c(CCCN3CC[C@@H](c4ccc(F)cc4)C3)cc12 [Example 32] | < 50% |
| N#Cc1ccc(N2CC3CCC(C2)N3C(=O)CCc2cc3ccc(F)cc3c(=O)[nH]2)nc1 [Example 220] | < 50% |
| N#Cc1ccc(N2CCN(C(=O)CCc3cc4cccc(F)c4c(=O)[nH]3)CC2)nc1 [Example 71] | < 50% |

Please find the next compound below.
IN: Fill blank: measured inhibition at 0.001 µM of the compound CC(=O)Nc1cccc(N2CCN(CCCc3cc4ccc(F)cc4c(=O)[nH]3)CC2)c1 [Example 20] is ____.
OUT: < 50%

====

# test-target: PARP-1 (poly[ADP-ribose] polymerase 1) enzyme (Homo sapiens (Human), UniProt P09874)
# test: PARP-1 (poly[ADP-ribose] polymerase 1) enzyme inhibitory ability, Trevigen assay kit
# Format: biochemical
# protocol-conditions: 1 nM compound; read-out: PAR P-1 Inhibitory ability at 1 nM
observable: inhibition at 0.001 µM

Worked set:
| item-smiles | test-target | inhibition at 0.001 µM |
| --- | --- | --- |
| Cc1ccc(F)c2c(=O)[nH]c(CCC(=O)N3CCN(C(=O)C4CCC4)CC3)cc12 | PARP-1 (poly[ADP-ribose] polymerase 1) enzyme (Homo sapiens (Human), UniProt P09874) | < 50% |
| Cc1ccc(F)c2c(=O)[nH]c(CCC(=O)N3CCN(C(=O)C4CCCCC4)CC3)cc12 | PARP-1 (poly[ADP-ribose] polymerase 1) enzyme (Homo sapiens (Human), UniProt P09874) | < 50% |
| Cc1cc(F)cc2c(=O)[nH]c(CCCN3CCN(c4ccc(C(F)(F)F)cc4)CC3)cc12 | PARP-1 (poly[ADP-ribose] polymerase 1) enzyme (Homo sapiens (Human), UniProt P09874) | < 50% |

IN: Fill blank: measured inhibition at 0.001 µM of the compound `Cc1cc(F)cc2c(=O)[nH]c(CCCN3CCN(c4ccc(C#N)cn4)CC3)cc12` is ____.
OUT: 50 to 80%
